- System: HCT116 MTAP-deleted cell lines
- test description: Cell viability assay (CellTiter-Glo, 7 days), HCT116 MTAP-deleted
- Assay type: cell-based
- test settings: Homo sapiens, HCT-116; cell viability assay, HCT116 MTAP-deleted; class symbols; read-out: CC50
outcome measure: CC50

* Nc1nc2cc(Cl)c(C(=O)N3CC[C@@H]4C[C@H]3c3ccc(Cl)cc34)cc2n2cncc12 [Ff-487] | 100 to 1000 nM
* CN(C(=O)c1cc2c(cc1Cl)nc(N)c1cncn12)[C@@H]1COc2cc(C(C)(F)F)ccc21 [Ff-508] | < 100 nM
* CN(C(=O)c1cc2c(cc1F)nc(N)c1cncn12)[C@@H]1COc2cc(Cl)c(F)cc21 (single isomer, unassigned) [Ff-597] | < 100 nM
* CN(C(=O)c1cc2c(cn1)nc(N)c1cncn12)C1CCc2cc(C(F)(F)F)ccc21 (stereo not drawn) [Ff-436] | < 100 nM
* C[C@H]1OC[C@@H](N(C)C(=O)c2ccc3nc(N)c4cncn4c3c2)c2ccc(C(F)(F)F)cc21 (single isomer, unassigned) [Ff-471] | < 100 nM

Now turn to the next compound.
CC50 measured on Nc1nc2cnc(C(=O)N3CC[C@H]4C[C@@H]3c3ccc(OC(F)(F)F)cc3O4)cc2n2cncc12 (racemic) [Ff-373] = < 100 nM

----------
- Tested on: HCT116 MTAP-deleted cell lines
- test description: Cell viability assay (CellTiter-Glo, 7 days), HCT116 MTAP-deleted
- Assay type: cell-based
- test settings: Homo sapiens, HCT-116; cell viability assay, HCT116 MTAP-deleted; class symbols; read-out: CC50
Below, each of the compounds is paired with its reported CC50 value.

Use the examples below as a reference point.
• CN(Cc1nc(-c2cnn(C(F)(F)F)c2)cs1)C(=O)c1cc2c(cc1F)nc(N)c1cncn12 [Ff-550] = 100 to 1000 nM
• Cc1ncc2c(N)nc3cnc(C(=O)N4CCC[C@@H]5Oc6cc(S(F)(F)(F)(F)F)ccc6[C@@H]54)cc3n12 [Fg-43] = < 100 nM
• C[C@@H]1CN(C(=O)c2cc3c(cc2F)nc(N)c2cncn23)[C@@H](c2cccc(C(F)F)n2)CO1 (single isomer, unassigned) [Ff-668] = 100 to 1000 nM
• Cc1ncn2c1c(N)nc1cc(F)c(C(=O)N(C)[C@@H]3COc4cc(C(C)(F)F)ccc43)cc12 [Ff-382] = < 100 nM

CC50 measured on Nc1nc2cc(Cl)c(C(=O)N3CC[C@H]4C[C@@H]3c3c(F)cc(Cl)cc34)cc2n2cncc12 [Ff-488] = 100 to 1000 nM

CC50 measured on Nc1nc2cc(F)c(C(=O)N3CCO[C@@H]4Cc5cc(Cl)ccc5[C@@H]43)cc2n2cncc12 [Ff-461] = < 100 nM

CC50 measured on [2H]C1([2H])CC[C@@H]2Oc3cc(C(F)(F)F)ccc3[C@@H]2N1C(=O)c1cc2c(cn1)nc(N)c1c(C)ncn12 [Ff-644] = < 100 nM

CC50 measured on Nc1nc2ccc(C(=O)N3C[C@H](F)C[C@@H]4Oc5cc(C(F)(F)F)ccc5[C@@H]43)cc2n2cncc12 (single isomer, unassigned) [Ff-681] = < 100 nM

----------
Below, each of the compounds is paired with its reported CC50 value.
- System: HCT116 MTAP-deleted cell lines
- test description: Cell viability assay (CellTiter-Glo, 7 days), HCT116 MTAP-deleted
- Type: cell-based
- test settings: Homo sapiens, HCT-116; cell viability assay, HCT116 MTAP-deleted; class symbols; read-out: CC50

• Cc1ncn2c(N)nc3ccc(C(=O)N(C)[C@@H]4COc5cc(C(F)(F)F)ccc54)cc3c12 = 100 to 1000 nM
• Cc1ncc2c3cc(C(=O)N(C)[C@@H]4COc5cc(C(F)(F)F)ccc54)ccc3nc(N)n12 = > 1000 nM
• CN(C(=O)c1cc2c(cc1F)nc(N)c1cncn12)[C@@H]1COc2cc(OC(F)F)c(F)cc21 = < 100 nM

Now turn to the next compound.
CC50 measured on CN(C(=O)c1cc2c(cc1F)nc(N)c1cncn12)[C@@H]1COc2cc(C3CC3(F)F)ccc21 (stereo partly shown) = < 100 nM

----------
Below, each of the compounds is paired with its reported CC50 value.
- Test system: HCT116 MTAP-deleted cell lines
- test description: Cell viability assay (CellTiter-Glo, 7 days), HCT116 MTAP-deleted
- Format: cell-based
- test settings: Homo sapiens, HCT-116; cell viability assay, HCT116 MTAP-deleted; class symbols; read-out: CC50

Use the examples below as a reference point.
- CN(Cc1ccn(-c2ccccc2)n1)C(=O)c1cc2c(cc1F)nc(N)c1cncn12 [Ff-454]: 100 to 1000 nM
- CN(C(=O)c1cc2c(cc1F)nc(N)c1cncn12)[C@@H]1COc2cc(OC(F)F)ccc21 (single isomer, unassigned) [Ff-559]: < 100 nM
- Nc1nc2cnc(C(=O)N3CCC4(CC4)[C@@H]4Oc5cc(C(F)(F)F)ccc5[C@@H]43)cc2n2cncc12 [Ff-677]: < 100 nM
- Nc1nc2ccc(C(=O)N3CCC[C@@H]4Oc5cc(OC(F)(F)F)ccc5[C@@H]43)cc2n2cncc12 [Ff-383]: < 100 nM
- Nc1nc2cnc(C(=O)N3CC4(CCC4)C[C@@H]4Oc5cc(C(F)(F)F)ccc5[C@@H]43)cc2n2cncc12 (racemic) [Ff-688]: < 100 nM
- Nc1nc2cnc(C(=O)N3CCC[C@@H]4Oc5cc(C(F)(F)F)ccc5[C@@H]43)cc2n2cnc(F)c12 (single isomer, unassigned) [Ff-626]: < 100 nM

CC50 measured on CN(C(=O)c1cc2c(cc1F)nc(N)c1cncn12)[C@@H]1COc2cc(C34CC(F)(C3)C4)ccc21 [Ff-453] = < 100 nM

CC50 measured on CN(C(=O)c1cc2c(cc1C#N)nc(N)c1cncn12)[C@@H]1COc2cc(OC(F)(F)F)ccc21 [Ff-561] = < 100 nM

CC50 measured on Nc1nc2cc(F)c(C(=O)N3CCC[C@@H]4Oc5cc(-c6cnn(C(F)(F)F)c6)ccc5[C@@H]43)cc2n2cncc12 [Ff-655] = < 100 nM

CC50 measured on Cc1ncn2c1c(N)nc1cnc(C(=O)N3CCC4(CC4)[C@@H]4Oc5cc(C(F)(F)F)ccc5[C@@H]43)cc12 [Ff-678] = < 100 nM

CC50 measured on CN(C(=O)c1cc2c(cc1F)nc(N)c1cncn12)[C@@H]1COc2cc(C3CC3)ccc21 [Ff-546] = < 100 nM

----------
Below, each of the compounds is paired with its reported Kp value.
- test description: Pharmacokinetics in cassette in male Sprague-Dawley rats for Kp measurement
- Assay type: in vivo
- test settings: 1 mg/kg, brain Kp = [brain]/[plasma], rat, intravenous, read-out: Rat brain Kp
Could you keep your reply to the number by itself?

Kp measured on C[C@@H]1CN(C(=O)c2cc3c(cc2F)nc(N)c2cncn23)[C@H]2c3cc(F)c(OC(F)(F)F)cc3C[C@H]2O1 (single isomer, unassigned) [Ff-197] = 0.22

Kp measured on Cc1ncn2c1c(N)nc1ccc(C(=O)N3CCC[C@@H]4Oc5cc(C(F)(F)F)ccc5[C@@H]43)cc12 [Fg-31] = 0.76

Kp measured on Nc1nc2cnc(C(=O)N3CC[C@H]4C[C@@H]3c3ccc(C(F)(F)F)cc3O4)cc2n2cncc12 [Ff-367] = 0.32

Kp measured on Nc1nc2cnc(C(=O)N3CC[C@H]4C[C@@H]3c3c(F)cc(C(F)(F)F)cc3O4)cc2n2cncc12 (single isomer, unassigned) [Ff-694] = 0.29

Kp measured on Nc1nc2cnc(C(=O)N3CCC[C@@H]4Oc5cc(OC(F)(F)F)ccc5[C@@H]43)cc2n2cncc12 [Ff-341] = 0.37

Kp measured on Cc1ncc2c(N)nc3cnc(C(=O)N4CCC[C@@H]5Oc6cc(OC(F)(F)F)ccc6[C@@H]54)cc3n12 [Ff-340] = 0.2

Kp measured on Nc1nc2cc(F)c(C(=O)N3CCO[C@@H]4Cc5cc(C(F)(F)F)ccc5[C@@H]43)cc2n2cncc12 (single isomer, unassigned) [Ff-82] = 0.15

Kp measured on Nc1nc2cnc(C(=O)N3CCC[C@@H]4Oc5cc(C(F)(F)F)cc(F)c5[C@@H]43)cc2n2cncc12 (single isomer, unassigned) [Fg-53] = 0.29

Kp measured on Nc1nc2cnc(C(=O)N3CCC[C@@H]4Oc5cc(OC(F)(F)F)cc(F)c5[C@@H]43)cc2n2cncc12 (single isomer, unassigned) [Fg-55] = 0.2

Kp measured on Cc1ncn2c1c(N)nc1cnc(C(=O)N3CCC[C@@H]4Oc5cc(C(F)(F)F)ccc5[C@@H]43)cc12 [Ff-499] = 0.67

Kp measured on Nc1nc2cc(Cl)c(C(=O)N3CCC[C@@H]4Oc5cc(C(F)(F)F)ccc5[C@@H]43)cc2n2cncc12 [Ff-587] = 0.52

Kp measured on C[C@H]1CN(C(=O)c2cc3c(cc2F)nc(N)c2cncn23)[C@H]2c3cc(F)c(C(F)F)cc3C[C@H]2O1 (single isomer, unassigned) [Ff-173] = 0.12

Kp measured on Nc1nc2cnc(C(=O)N3CCC[C@@H]4Oc5cc(C(F)(F)F)ccc5[C@@H]43)cc2n2cncc12 [Ff-110] = 0.48

Kp measured on Nc1nc2ccc(C(=O)N3CCC[C@@H]4Oc5cc(C(F)(F)F)ccc5[C@@H]43)cc2n2cncc12 [Ff-111] = 0.4

Kp measured on Nc1nc2cc(F)c(C(=O)N3CCC[C@@H]4Oc5cc(C(F)(F)F)ccc5[C@@H]43)cc2n2cncc12 [Ff-104] = 0.39

Kp measured on C[C@@H]1CN(C(=O)c2cc3c(cc2F)nc(N)c2cncn23)[C@H]2c3ccc(OC(F)(F)F)cc3C[C@H]2O1 (single isomer, unassigned) [Ff-183] = 0.41

Kp measured on Nc1nc2cnc(C(=O)N3CCC[C@@H]4Oc5c(ccc(C(F)(F)F)c5F)[C@@H]43)cc2n2cncc12 [Ff-109] = 0.1

Kp measured on C[C@H]1CN(C(=O)c2cc3c(cc2F)nc(N)c2cncn23)[C@H]2c3ccc(C(F)(F)F)cc3C[C@H]2O1 (single isomer, unassigned) [Ff-81] = 0.17
